Where these numbers come from: ChEMBL document CHEMBL4312043

target under test: Neuraminidase (Influenza A virus (A/Puerto Rico/8/1934(H1N1)))
Sequence (P03468 whole entry): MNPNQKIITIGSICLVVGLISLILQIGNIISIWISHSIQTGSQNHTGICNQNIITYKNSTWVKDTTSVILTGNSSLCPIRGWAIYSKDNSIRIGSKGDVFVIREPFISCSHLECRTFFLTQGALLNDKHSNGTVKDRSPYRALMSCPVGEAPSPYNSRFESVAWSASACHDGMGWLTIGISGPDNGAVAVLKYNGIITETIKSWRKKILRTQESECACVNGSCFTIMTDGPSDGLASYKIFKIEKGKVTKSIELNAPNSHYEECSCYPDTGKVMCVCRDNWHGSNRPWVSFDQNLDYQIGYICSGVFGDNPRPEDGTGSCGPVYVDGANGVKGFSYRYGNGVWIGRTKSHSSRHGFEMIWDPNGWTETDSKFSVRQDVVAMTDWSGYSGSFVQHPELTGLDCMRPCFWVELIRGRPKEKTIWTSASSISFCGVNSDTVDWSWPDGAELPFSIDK
observation type: IC50 (µM)
Write the value in µM as a bare number.

Query :: Request body: readout IC50, system Neuraminidase (Influenza A virus (A/Puerto Rico/8/1934(H1N1))), query CC1=NN(c2cccc(C(=O)O)c2)C(=O)/C1=C\c1ccc(-c2cc(Cl)ccc2C(=O)O)o1 . Return the value.
Result :: 37
